- target desc: human ether-à-go-go-related gene (hERG) potassium channel (human);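 also: peak tail current of the secondary pulse compared with the same well before compound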
- Sequence (Q12809 whole entry, looked up): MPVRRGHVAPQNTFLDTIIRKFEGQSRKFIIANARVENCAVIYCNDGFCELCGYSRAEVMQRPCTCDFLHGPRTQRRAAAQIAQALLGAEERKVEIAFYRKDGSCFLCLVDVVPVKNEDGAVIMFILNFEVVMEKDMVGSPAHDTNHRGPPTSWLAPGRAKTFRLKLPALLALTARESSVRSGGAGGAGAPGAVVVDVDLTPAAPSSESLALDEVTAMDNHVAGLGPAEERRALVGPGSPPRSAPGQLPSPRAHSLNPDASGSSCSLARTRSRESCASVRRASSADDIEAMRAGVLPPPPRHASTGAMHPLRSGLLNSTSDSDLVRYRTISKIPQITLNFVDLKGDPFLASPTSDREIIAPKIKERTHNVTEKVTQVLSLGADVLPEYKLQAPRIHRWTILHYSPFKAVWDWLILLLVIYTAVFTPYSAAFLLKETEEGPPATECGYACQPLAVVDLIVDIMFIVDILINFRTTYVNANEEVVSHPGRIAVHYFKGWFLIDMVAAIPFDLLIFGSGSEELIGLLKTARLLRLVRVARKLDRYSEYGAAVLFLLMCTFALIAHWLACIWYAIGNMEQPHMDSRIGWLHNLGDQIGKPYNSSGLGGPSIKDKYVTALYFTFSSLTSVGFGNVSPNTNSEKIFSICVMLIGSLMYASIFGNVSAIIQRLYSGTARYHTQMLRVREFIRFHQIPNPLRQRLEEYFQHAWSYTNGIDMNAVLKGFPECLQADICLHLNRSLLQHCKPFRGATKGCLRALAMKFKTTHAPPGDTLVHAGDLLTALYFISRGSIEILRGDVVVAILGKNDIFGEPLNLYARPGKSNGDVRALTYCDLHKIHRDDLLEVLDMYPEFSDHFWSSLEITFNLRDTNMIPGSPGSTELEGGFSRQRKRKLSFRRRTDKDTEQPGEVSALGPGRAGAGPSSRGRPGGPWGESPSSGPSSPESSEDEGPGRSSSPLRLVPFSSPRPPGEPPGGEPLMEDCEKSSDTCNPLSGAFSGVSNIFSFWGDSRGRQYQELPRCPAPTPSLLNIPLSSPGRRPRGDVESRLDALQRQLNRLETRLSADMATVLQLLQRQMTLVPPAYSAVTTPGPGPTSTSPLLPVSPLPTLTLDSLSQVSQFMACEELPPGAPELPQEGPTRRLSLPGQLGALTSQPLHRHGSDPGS
- test details: primary screen, population patch clamp on CHO cells stably expressing hERG; higher = less effect of the substance
The campaign covered roughly 310,000 compounds. About 14,000 (4.5%) showed an effect of 50% or more. The effect is printed as a negative number. This excerpt belongs to a sample that is enriched for strong results.
measure: hERG current change (%, negative = inhibition) at 10uM (%)
Answers are plain numbers, in %.

These recorded examples may help you get a feel for the data.
{"columns": ["molecule", "assay result"],
 "data": [
  ["CCOC(=O)c1ccc2c(c1)nc(-c1ccc(F)cc1)c1nccn12", 5.55],
  ["CC(O)CN(Cc1ccc(Cl)cc1)CC(C)O (stereo not drawn)", 7.61],
  ["Cc1ccccc1C(=O)NC(=S)Nc1ccc(S(=O)(=O)N2CCN(C)CC2)cc1", 7.75]
]}

Hi team, please reply with hERG current change (%, negative = inhibition) at 10uM for each item in this list.
1. CCc1ccc(NC(=O)COn2nnc3ccc(S(=O)(=O)N(C)C)cc32)cc1
2. CCCCN(CC)CCNC(=O)c1cc2c(C)nc3ccccc3c2o1
3. O=C1CNC(=S)N1C(CO)c1ccccc1 (stereo not drawn)
4. CCOC(C(=O)OCC(O)CN(CC)CC)(c1ccccc1)c1ccccc1.Cl (stereo not drawn)
5. CC(OCC(O)CN(C)Cc1nc2ccccc2c(=O)[nH]1)c1ccc(Cl)cc1 (stereo not drawn)
6. Oc1cccc(C=NCc2ccccc2)c1
7. O=C(O)C(=O)O.O=C1CCCN1CN1CCCCC1
8. CCCN(CCC)CCNC(=O)c1cc2c(C)nc3ccccc3c2o1

result:
-29.1
-53.5
22.2
-5.25
-34
8.22
0.00358
-29.7

Go through the list and state hERG current change (%, negative = inhibition) at 10uM for each entry.
1. O=C(CN1C(=O)CSC1=O)c1ccccc1
2. Cc1ccc(C)c(S(=O)(=O)Nc2cc(SCC(=O)O)c(O)c3ccccc23)c1
3. O=C1OC(c2ccccc2)=C/C1=C/N1CCOCC1
4. COC(=O)Nc1ncc(CN2C(=O)c3ccccc3C2=O)s1
5. COc1ccc(NC(=O)NC2CCCc3ccccc32)c(OC)c1 (stereo not drawn)
6. CCCCN(CC)C(=O)c1cc2cc3ccc(OC)cc3nc2o1
7. O=C(NCc1ccco1)c1cc2cc3ccc(Cl)cc3nc2o1

result:
1.83
5.34
2.28
-23
13.3
-38.8
4.32

Please state hERG current change (%, negative = inhibition) at 10uM for every molecule in the list that follows.
1. CN(C)CC(O)COC(c1ccccc1)c1ccccc1 (stereo not drawn)
2. CCCC(O)(c1ccc(OC)cc1)C(CN(C)C)c1ccccc1 (stereo not drawn)
3. O=C(CSc1nnc(-c2ccccc2Br)o1)Nc1nncs1
4. CCCN(CCC)CCCNC(=O)c1cc2cc3ccc(Cl)cc3nc2o1
5. Cc1ccc(NC(=O)C2CCN(S(=O)(=O)c3ccc4c(c3)CCCC(=O)N4)CC2)c(Br)c1

result:
1. -51.6
2. -4.69
3. -57.9
4. -61
5. -5.9

Below are some molecules; for each one, tell me its hERG current change (%, negative = inhibition) at 10uM.
1. O=C(Cn1c(=O)cnc2ccccc21)N1CCCc2ccccc21
2. Cc1ccc(N2CC(O)Cn3c2nc2c3c(=O)[nH]c(=O)n2C)cc1 (stereo not drawn)
3. CCOCCCNC(=O)c1cc2cc3cc(OC)ccc3nc2o1

result:
1: 10.8; 2: 13.3; 3: -7.74

Below are some molecules; for each one, tell me its hERG current change (%, negative = inhibition) at 10uM.
1. COc1c(O)cccc1[C@@H](O)C1CCN(CCc2ccc(F)cc2)CC1
2. N#Cc1ccc(-c2ccc(Cl)cc2)nc1SCC(=O)c1cccc(Cl)c1
3. CN(C)CC(O)COC(c1ccc(Cl)cc1)c1ccc(Cl)cc1 (stereo not drawn)
4. Cc1ccc(OCc2ccc(C(=O)Nc3ccc(S(N)(=O)=O)cc3)o2)cc1
5. COCCN(CCOC)CC(O)COC(c1ccccc1)c1ccccc1 (stereo not drawn)

result:
1. -55.8
2. 28.9
3. -75.8
4. 12.4
5. -35.9

Give hERG current change (%, negative = inhibition) at 10uM for all molecules that follow.
1. Cn1c(SCc2ccc(Cl)cc2)nnc1-c1ccc2nonc2c1
2. Cc1cccc(C)c1NC(=O)C1(N(Cc2ccco2)C(=O)CC2NC(=O)NC2=O)CCCCC1 (stereo not drawn)
3. Cn1c(SCc2ccccc2)nnc1-c1ccc2nonc2c1
4. CCOc1ccc2nc(SCC(=O)NCc3ccccc3)[nH]c2c1
5. Cc1cc(C)c(S(=O)(=O)c2ccccc2Cl)c(=O)[nH]1
6. CCN(Cc1ccccc1)CC(O)COc1ccccc1.Cl (stereo not drawn)
7. O=C(O)c1ccc(N2C(=O)CC(SC(=NCc3ccc4c(c3)OCO4)Nc3ccccc3)C2=O)cc1 (stereo not drawn)
8. O=C(N/N=C/c1ccc(Cl)cc1Cl)C(=O)NC1CC1

result:
1. 0.685
2. 7.25
3. -9.18
4. 2.63
5. 10.7
6. -25.7
7. 13.9
8. 17.4

Each molecule below has a reported value. Please supply its hERG current change (%, negative = inhibition) at 10uM.
1. COc1c(C)cc(C(=O)C2CCCN(C(=O)c3cc(C)nc(C)n3)C2)cc1C (stereo not drawn)
2. C=CCNC(=O)NC(=O)COn1nnc2ccc(S(=O)(=O)N(C)C)cc21
3. O=S(=O)(c1cccc(-c2cn3cc(Cl)ccc3n2)c1)N1CCOCC1

result:
[7.89, 5.69, -23.1]
